- Tested on: ovarian cancer cells with (OVCAR8, OVCAR4) or without (OVSAHO, CAOV3) MYC-HSF1 amplification
- test description: Epigenetic inhibitor drug screen, cell viability (Cell Titer Blue)
- Type: cell-based
- study conditions: 10 uM, 48 hrs; average relative cell viability (vs 1% DMSO) of non-amplified cells (OVSAHO, CAOV3) minus that of MYC-HSF1 amplified cells (OVCAR8, OVCAR4); positive = greater response in amplified cells; 10 µM
Structures can show the parent of a compound that is named as a salt.
reported metric: Non Amp - AMP (POC) 10 uM
Be sure to follow the number with its unit.

Example entries and their recorded answers appear below.
compound	Non Amp - AMP (POC) 10 uM
COc1cc2c(NC3CCN(C)CC3)nc(N3CCCN(C)CC3)nc2cc1OCCCN(C)C	7.132 POC
COc1ccccc1S(=O)(=O)Nc1ccc2c(c1)CN(C)C(=O)N2	9.637 POC
O=Nc1ccc(O)c2ncccc12 [NSC 3852]	27.71 POC
CC(C)Oc1ccc(-c2c[nH]cc2CN(C)CCN)cc1 [MS023 (hydrochloride)]	6.531 POC
COc1cc2c(cc1-c1c(C)noc1C)ncc1[nH]c(=O)n([C@H](C)c3ccccn3)c12	21.72 POC
C[C@@H]1CCN(C(=O)CC#N)C[C@@H]1N(C)c1ncnc2[nH]ccc12 [Tofacitinib (CP-690550) Citrate, Tofacitinib]	3.666 POC
Cl.O=C([C@@H](Cc1cccc(C(F)(F)F)c1)NS(=O)(=O)c1cc(F)c2c(c1)CCNC2)N1CCCC1 [(R)-PFI-2 (hydrochloride)]	19.35 POC
Nc1nccc2c1ncn2[C@@H]1C=C(CO)[C@@H](O)[C@H]1O [3-Deazaneplanocin A (DZNep) hydrochloride]	8.136 POC

Next, consider the following compound.
Endpoint output: Non Amp - AMP (POC) 10 uM of CCCC(CCC)C(=O)O [Valproic acid] . Value? −3.268 POC

Source listed as patent US20250011881A1.
